- Test system: Mycobacterium kansasii
- EXPERIMENT DESCRIPTION: Antimycobacterial activity against Mycobacterium kansasii isolate 6509/96 after 7 days by micromethod
- Type: functional
- CONDITION NOTES: isolate 6509/96, 168 h
Measured MIC accompanies every entry in the list below.
Give just the number in µM; leave the unit off.

The following compounds have reported results that may help.
> print(dat)
                           structure.string  measurement.type  reading
1  O=C(Nc1cc(C(F)(F)F)cc(C(F)(F)F)c1)c1cc(Br)ccc1O               MIC        4
2       O=C(Nc1ccc(Br)cc1)c1cc(Cl)c(Cl)cc1O               MIC        8
3       O=C(Nc1ccc(Br)cc1)c1cc(Br)c(Cl)cc1O               MIC        8
4                           NNC(=O)c1ccncc1               MIC        4

We next turn to a different compound, shown below.
(Q) Dear colleague, I am looking for the recorded MIC of the following compound: O=C(Nc1ccc(C(F)(F)F)cc1)c1cc(Cl)c(Cl)cc1O
(A) 4

All figures here come from ChEMBL document CHEMBL3877325.
